# Measured on: kinases (Homo sapiens, UniProt P00519, H396P)
# Construct: purchased Eurofins/DiscoveRx; host or cells: E. coli BL21-derived host (T7 phage display) for most kinases; HEK-293 for the rest
# Assay summary: KINOMEscan kinase binding assay (Eurofins/DiscoveRx), % Ctrl
# Measurement setup: 1 μM; target ABL1(H396P)-nonphosphorylated
Task for the reader: assign each of the following molecules its reported % Ctrl, ABL1(H396P)-nonphosphorylated.
Give bare numbers, in % Ctrl.

Hi there! I need % Ctrl, ABL1(H396P)-nonphosphorylated for each item below, if you can.
1. Cc1cc2c([nH]1)/C=C1\C(=O)Nc3cnc(cc31)-c1cnn(C)c1CN(C)CCN(C)C2=O [Ex. 172]
2. Cc1cc2c([nH]1)/C=C1\C(=O)Nc3ccc(cc31)-c1cnn(C)c1OCCCN(C)C2=O [Ex. 166]

0
0.7
